Source listed as patent EP0908457B1.

Tested on: Oryza sativa, (L.) Tebonnet
Test name: Rice tolerance to post-transplant applications under flooded paddy conditions (Example 188), ORYSAT (Rice, Tebonnet)
Experimental conditions: Rate 0.1250 kg/ha, rated three to four weeks after treatment
Property name: herbicidal effect rating, ORYSAT (rice tolerance)
Please give only the number in your answer, with no unit.

1) CCc1ccc(-c2nsc3ccc(-n4c(=O)cc(C(F)(F)F)n(C)c4=O)cc23)cc1 = 4.0
2) COC(=O)COc1ccc(C)cc1-c1nsc2ccc(-n3c(=O)cc(C(F)(F)F)n(C)c3=O)cc12 = 3.0
3) CCOc1cccc(-c2nsc3ccc(-n4c(=O)cc(C(F)(F)F)n(C)c4=O)cc23)c1 = 5.0
4) COCc1nsc2cc(F)c(-n3c(=O)cc(C(F)(F)F)n(C)c3=O)cc12 = 9.0
5) Cn1c(C(F)(F)F)cc(=O)n(-c2ccc3snc(C(=O)C(C)(C)C)c3c2)c1=O = 7.0

herbicidal effect rating, ORYSAT (rice tolerance) for Oryza sativa, (L.) Tebonnet with input `COC(=O)COc1ccc(C)cc1-c1noc2cc(F)c(-n3c(=O)cc(C(F)(F)F)n(C)c3=O)cc12` equals 4.0

Note to self: herbicidal effect rating, ORYSAT (rice tolerance) of `COC(=O)COc1cc(C)c(C)cc1-c1nsc2ccc(-n3c(=O)cc(C(F)(F)F)n(C)c3=O)cc12` with Oryza sativa, (L.) Tebonnet was 7.0

Here `COc1cc2c(cc1-c1nsc3ccc(-n4c(=O)cc(C(F)(F)F)n(C)c4=O)cc13)CCC2` was tested on Oryza sativa, (L.) Tebonnet, and its herbicidal effect rating, ORYSAT (rice tolerance) came to 7.0

====

System: Oryza sativa, (L.) Tebonnet
Test name: Rice tolerance to post-transplant applications under flooded paddy conditions (Example 187), ORYSAT (Rice, Tebonnet); also: meaning of each grade not given here
Experimental conditions: Rate 0.2500 kg/ha, rated three to four weeks after treatment
I'd appreciate it if you marked entries class 1 when herbicidal effect rating ORYSAT is lower than 4 and class 0 when it is not.

1. CCCS(=O)(=O)NC(=O)C(C)Oc1ccc(C)cc1-c1nsc2ccc(-n3c(=O)cc(C(F)(F)F)n(C)c3=O)cc12 (stereo not shown) = class 1
2. C#CCC(C#N)(CC#C)c1nsc2ccc(-n3c(=O)cc(C(F)(F)F)n(C)c3=O)cc12 = class 0
3. Cn1c(C(F)(F)F)cc(=O)n(-c2ccc3snc(C(=O)NCC(=O)O)c3c2)c1=O = class 1

Consider the compound `COc1cc2c(cc1-c1nsc3ccc(-n4c(=O)cc(C(F)(F)F)n(C)c4=O)cc13)CCC2` . Is its herbicidal effect rating ORYSAT strictly less than 4? class 0

Threshold test, herbicidal effect rating ORYSAT < 4: `Cn1c(C(F)(F)F)cc(=O)n(-c2ccc3snc(C(C#N)=Cc4cnc[nH]4)c3c2)c1=O` class 1

herbicidal effect rating ORYSAT strictly < 4 for this compound? `Cn1c(C(F)(F)F)cc(=O)n(-c2ccc3snc(C(=O)NS(C)(=O)=O)c3c2)c1=O` class 0

====

System: Cyperus serotinus, Rottb.
Test name: Preemergence weed control under flooded paddy conditions, CYPSE (Flatsedge)
Type: in vivo
Experimental conditions: Rate 0.1250 kg/ha, preemergence, rated three to four weeks after treatment
Each entry below carries its reported CYPSE herbicidal effect rating.

Example entries and their recorded answers appear below.
1) C=CCOc1nc(C(F)(F)F)cc(=O)n1-c1ccc2snc(-c3cc(C)ccc3OC)c2c1 = 0.0
2) CO/N=C/c1nsc2ccc(-n3c(=O)cc(C(F)(F)F)n(C)c3=O)cc12 = 9.0
3) Cn1c(C(F)(F)F)cc(=O)n(-c2ccc3snc(C(Br)C#N)c3c2)c1=O (stereo not shown) = 9.0

Short answer for `Cc1nsc2ccc(-n3c(=O)cc(C(F)(F)F)n(Cc4ccccc4)c3=O)cc12` : CYPSE herbicidal effect rating was 0.0

# CYPSE herbicidal effect rating of `C=CCCOCc1nsc2ccc(-n3c(=O)cc(C(F)(F)F)n(C)c3=O)cc12` = 6.0

What the record says about `COC(=O)/C=C/c1nsc2ccc(-n3c(=O)cc(C(F)(F)F)n(C)c3=O)cc12` : CYPSE herbicidal effect rating is 0.0

Summary for this compound, `Cn1c(C(F)(F)F)cc(=O)n(-c2ccc3snc(C=C(Br)Br)c3c2)c1=O` : CYPSE herbicidal effect rating is 2.0

Note to self: CYPSE herbicidal effect rating recorded for `C=Cc1nsc2ccc(-n3c(=O)cc(C(F)(F)F)n(C)c3=O)cc12` was 8.0
